Recorded pIC50, one value per entry.
# Test system: Blood
# Protocol: Antiinflammatory activity against LPS-induced TNFalpha production in human whole blood treated 1 hr before LPS challenge measured after 4 hrs by ELISA
# Assay type: functional, tissue-based
Reminder that pIC50 means the negative base-10 logarithm of the concentration expressed in mol/L.

# pIC50 measured on Blood for item CC(C)(O)CN1CCC(c2[nH]nc(-c3ccc(Cl)cc3)c2-c2ccncn2)CC1 = 6.00

---

Recorded inhibition in vivo at 5 mg/kg, one value per entry.
# Tested on: Rattus norvegicus
# Protocol: Antiinflammatory activity in Lewis rat plasma assessed as reduction in LPS-stimulated TNFalpha accumulation at 5 mg/kg, ig administered 4 hrs before LPS challenge measured after […] by ELISA
# Format: functional
# Cond: po, route intragastric
Numbers only; they are read as %.

The examples below pair each entry with its known result.
COCC(=O)N1CCC(c2[nH]nc(-c3ccc(Cl)cc3)c2-c2ccncn2)CC1: 88
COCC(=O)N1CCC(c2[nH]nc(-c3ccc(Cl)cc3)c2-c2ccncc2)CC1: 90

CC(=O)N1CCC(c2[nH]nc(-c3ccc(Cl)cc3)c2-c2ccncc2)CC1 yielded inhibition in vivo at 5 mg/kg of 66

CN1CCCC(c2[nH]nc(-c3ccc(F)cc3)c2-c2ccncc2)C1 (stereo not given) yielded inhibition in vivo at 5 mg/kg of 63

CN1CCC(c2[nH]nc(-c3cccc(Cl)c3)c2-c2ccncc2)CC1 yielded inhibition in vivo at 5 mg/kg of 27

OCCN1CCC(c2[nH]nc(-c3ccc(Cl)cc3)c2-c2ccncc2)CC1 yielded inhibition in vivo at 5 mg/kg of 88

---

# Protocol: Selectivity ratio of IC50 for p38 beta to IC50 for p38alpha
Recorded Ratio IC50, one value per entry.
Field format: numeric only.

The examples below pair each entry with its known result.
CN1CCC(c2[nH]nc(-c3ccc(Cl)cc3)c2-c2ccncc2)CC1: 84
CN1CCCC(c2[nH]nc(-c3ccc(F)cc3)c2-c2ccncc2)C1 (centres undefined): 28
Fc1ccc(-c2n[nH]c(C3CCCNC3)c2-c2ccncc2)cc1 (centres undefined): 6

CN1CCC(c2[nH]nc(-c3ccc(F)cc3)c2-c2ccncc2)CC1 yielded Ratio IC50 of 35

---

# Tested on: Rattus norvegicus
# Protocol: Antiinflammatory activity in Lewis rat plasma assessed as reduction in LPS-stimulated TNFalpha accumulation at 5 mg/kg, ig administered 4 hrs before LPS challenge measured after […] by ELISA
# Type: functional
# Cond: po, route intragastric
// map inhibition in vivo at 5 mg/kg to label using low: < 30%; middle: ≥ 30% and < 80%; high: ≥ 80%

Study these solved cases before continuing.
O=C(O)CN1CCC(c2[nH]nc(-c3ccc(Cl)cc3)c2-c2ccncc2)CC1: low
CN1CCC(c2[nH]nc(-c3ccc(Cl)cc3)c2-c2ccncc2)CC1: middle
CC(=O)N1CCC(c2[nH]nc(-c3ccc(Cl)cc3)c2-c2ccncn2)CC1: high

Prompt: Which category fits this record: CC(C)(O)CN1CCC(c2[nH]nc(-c3ccc(Cl)cc3)c2-c2ccncn2)CC1
Completion: middle

Prompt: Which category fits this record: CN1CCC(c2[nH]nc(-c3ccc(F)cc3)c2-c2ccncc2)CC1
Completion: middle

Prompt: Which category fits this record: Clc1ccc(-c2n[nH]c(C3CCN(Cc4ccncc4)CC3)c2-c2ccncn2)cc1
Completion: low

Prompt: Which category fits this record: COCCN1CCC(c2[nH]nc(-c3ccc(Cl)cc3)c2-c2ccncc2)CC1
Completion: high

Prompt: Which category fits this record: CN(C)C(=O)N1CCC(c2[nH]nc(-c3ccc(Cl)cc3)c2-c2ccncn2)CC1
Completion: high

Prompt: Which category fits this record: CC(C)(CO)N1CCC(c2[nH]nc(-c3ccc(Cl)cc3)c2-c2ccncn2)CC1
Completion: low

Prompt: Which category fits this record: CS(=O)(=O)N1CCC(c2[nH]nc(-c3ccc(Cl)cc3)c2-c2ccncc2)CC1
Completion: middle
